This collection of values is drawn from PubChem BioAssay (NCI).

- Test Protocol: NCI Yeast Anticancer Drug Screen. Data for the mlh1 rad18 strain (AID 175)
- Experimental Conditions: S. cerevisiae mlh1 rad18 strain growth inhibition; at 50.0 µM; stronger effect = higher value
This is part of a sample that, as a whole, favours compounds with a hit. Of some 79,000 tested, about 15% had one in any assay.

# Compound, growth inhibition / %
records = [
    ("CC(C)(O)/C=C/C(=O)[C@](C)(O)[C@H]1[C@H](O)C[C@@]2(C)[C@@H]3CC=C4[C@@H](C[C@H](O)C(=O)C4(C)C)[C@]3(C)C(=O)C[C@]12C", 1.8),
    ("CC(C)C(C)(O)C#N (stereo unspecified)", 17.9),
    ("Oc1cc(Cl)ccc1Cl", 98.8),
    ("[Cl][Ni][Cl].[NH-]CCN1CC1.[NH-]CCN1CC1", -5.75),
    ("NC(N)=NN(N=O)C1CCCCC1", 5.8),
    ("CC1OCN2CCCCC12 (stereo unspecified)", -27.1),
    ("O=S(=O)(O)C1CCC(O)C2[N-]CCCC21.O=S(=O)(O)C1CCC(O)C2[N-]CCCC21.[Ni+2] (stereo unspecified)", 23.9),
    ("CCCCCC(=O)C[n+]1ccccc1 (tested in a mixture with another compound)", -9.15),
    ("N.N.N.N.N.O=C([O-])C(=O)[O-].[Co+3].[O-][Cl+3]([O-])([O-])O.[O-][Cl+3]([O-])([O-])[O-]", -12.7),
    ("CN(C)P1(=O)OCC(C(C)(C)C)CN1c1ccccc1 (stereo unspecified)", -14.3),
    ("CCCOP1(=O)C=C(O)C(Cl)=C(C)C1 (stereo unspecified)", -46.8),
    ("CSc1nc2cc(Cl)ccc2c2c1C=NCCN2", 4.05),
    ("Cc1cc(C)n(/C(N)=N/[N+](=O)[O-])n1", 15.2),
    ("CC(C)(C)OO", -17),
    ("NC(CSSCC(N)C(=O)c1ccccc1)C(=O)c1ccccc1 (stereo unspecified)", 4.35),
    ("C/C=C(\\C)C1(CC)C(=O)NC(=O)N(C)C1=O (stereo unspecified)", -5.95),
    ("Cc1ccc(OP(=O)(Oc2ccc(C)cc2)Oc2ccc(C)cc2)cc1.Cc1ccc(OP(=O)(Oc2ccc(C)cc2)Oc2ccc(C)cc2)cc1.Cc1ccc(OP(=O)(Oc2ccc(C)cc2)Oc2ccc(C)cc2)cc1.Cc1ccc(OP(=O)(Oc2ccc(C)cc2)Oc2ccc(C)cc2)cc1.[O-][Cl+3]([O-])([O-])O.[Zn+2]", -21.9),
    ("NP(=O)(OCCC(OCc1ccccc1)OCc1ccccc1)N(CCCl)CCCl (stereo unspecified)", 31.8),
    ("Nc1ccc([N+](=O)[O-])cc1N", 10.2),
    ("c1ccc(C(c2ccccc2)C2CCNCC2)cc1", 2.85),
    ("OC1(c2ccccc2)C2CCN(CC2)C1CN1CCOCC1 (stereo unspecified)", 7.95),
]

====

- Test Protocol: NCI Yeast Anticancer Drug Screen. Data for the rad50 strain (AID 155);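 further: 0% = growth of vehicle-only cultures of the same strain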
- Experimental Conditions: S. cerevisiae rad50 strain growth inhibition; at 50.0 µM; stronger effect = higher value
This is part of a sample that, as a whole, favours compounds with a hit. Of some 79,000 tested, about 15% had one in any assay.

# Compound, growth inhibition / %
records = [
    ("COc1ccc(C(OCC2OC(n3ccc(Oc4c(F)c(F)c(F)c(F)c4F)nc3=O)CC2OP(OCCC#N)N(C(C)C)C(C)C)(c2ccccc2)c2ccc(OC)cc2)cc1 (configuration not stated)", 18.1),
    ("CCOC(=O)CC(=O)CCl.[Cu+2]", -14.9),
    ("O=[N+]([O-])c1ccc(C[N+]23CCN(CC2)CC3)cc1", 5.9),
    ("Oc1cc(N2CC2)c(O)cc1N1CC1", 12.8),
    ("COC(=O)CP(=O)(OC)OCC(F)(F)F (configuration not stated)", -32.8),
    ("CCC1(CCSC#N)C(=O)NC(=O)NC1=O", -7.55),
    ("C/C=C/CC1(CC)C(=O)NC(=S)NC1=O", 3.8),
    ("C1CC[N-]CC1.CC(=N\\O)/C(C)=N/O.CC(=N\\O)/C(C)=N/O.CCOC(=O)CC[C-]=O.[Co+2]", -15.1),
    ("O=[As](O)(O)c1cccc(Cl)c1", 9.3),
    ("CCOC(OCC)/C(=C\\N(C)C)N=C(C#N)C#N", 0.95),
    ("O=C/C=C/c1ccco1", 17.4),
    ("C=CCC1(C(=C)C)C(=O)NC(=O)NC1=O", 6.05),
]
